Recorded values, source the supplement of paper PMC12645437.

Target: T1, CRBN, Q96SW2;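 further: pooled lentiviral library of zinc finger degron-EGFP fusions in mCherry-positive Jurkat cells, FACS-sorted after compound exposure, with degron abundance counted by next-generation sequencing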
T1 chain: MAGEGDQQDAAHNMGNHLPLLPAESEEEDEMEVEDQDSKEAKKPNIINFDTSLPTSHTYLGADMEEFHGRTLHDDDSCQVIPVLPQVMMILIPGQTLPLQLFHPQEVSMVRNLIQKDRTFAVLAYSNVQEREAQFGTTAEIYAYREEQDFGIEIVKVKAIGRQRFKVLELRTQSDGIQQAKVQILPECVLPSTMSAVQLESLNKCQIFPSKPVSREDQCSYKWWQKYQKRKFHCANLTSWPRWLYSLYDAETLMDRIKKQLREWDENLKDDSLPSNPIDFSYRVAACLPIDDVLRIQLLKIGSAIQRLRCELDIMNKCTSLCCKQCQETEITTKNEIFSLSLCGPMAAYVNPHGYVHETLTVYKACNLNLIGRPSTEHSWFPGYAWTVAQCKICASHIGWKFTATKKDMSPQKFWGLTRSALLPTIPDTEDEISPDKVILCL
Assay: log2 fold change of degron read counts, EGFP-low vs EGFP+ sorted cells (limma voom), compound-induced degradation; higher = more compound-induced degradation of the degron-EGFP fusion; degrons are variants of IKZF1/3 zinc finger 2; compound dose not given here
Conditions: Jurkat; 18 h; compound: compound 19 (5-tert-butyl-thalidomide)
The full ranking holds about 8,300 sequences; the median of “log2 fold change of degron read counts, EGFP-low vs EGFP+ sorted cells (limma voom), compound-induced degradation” is about -1.1, and the highest 2% start at about 3.2. The full list was thinned out, with the highest values kept by preference.
log2 fold change of degron read counts values for the sequences below.
Hey, just send me the number, nothing else.

Past entries and their recorded results:
- sequence text: "FWCEQCGARFTQKGNLLRHIKL [46F_47W_49E_50Q_52G_53A_54R_55F_67L_, Q9UKT9]"
  value measured: 1.69
- sequence text: "FFCEICGRAFTQKGNLLRHIKL [46F_47F_49E_50I_52G_53R_54A_55F_67L_, Q9UKT9]"
  value measured: 0.601
- sequence text: "LTCEICGFECTQKGNLLRHIKL [46L_47T_49E_50I_52G_53F_54E_55C_67L_, Q9UKT9]"
  value measured: -0.328

Req: I'd like to know its log2 fold change of degron read counts. The sequence in question is FYCPQCGAWFTQKGNLLRHIKL [46F_47Y_49P_50Q_52G_53A_54W_55F_67L_, Q9UKT9]
Resp: -0.595
